Quick list: TGI per entry.
test system: LOX IMVI melanoma; test: NCI tumour cell line growth inhibition, 48 h

| MOLECULE | TGI |
| --- | --- |
| CN(C)P(=O)(/C(N)=N/Nc1ccc([N+](=O)[O-])cc1)N(C)C | > 100 µM |
| O=C(/C=C/c1cccc([N+](=O)[O-])c1)N1CCN(CCOC(c2ccccc2)c2ccccc2)CC1 | 62.1 µM |
| CN(CCC(=O)N1CC(CCl)c2ccc([N+](=O)[O-])cc21)CCC(=O)N1CC(CCl)c2ccc([N+](=O)[O-])cc21 (stereo not given) | 21.7 µM |
| CC1=C(C)CC2(CCCCC2=O)S(=O)C1 (stereo not given) | > 100 µM |
| CN(C)CCn1c(=O)c2ccc(NCCNCCO)c3c(=O)c4ccccc4n(c1=O)c23 | 0.78 µM |

FYI, the data here is from PubChem BioAssay (NCI).
